protocol-details: Antiplatelet activity against guinea pig platelet-rich plasma assessed as inhibition of ADP-induced platelet aggregation measured within 3 hrs by turbidimetric method
Assay type: functional
assay-conditions: Cavia porcellus
Please respond with reported pIC50 for every item in the list.
Lab note: report pIC50 as minus log10 of the concentration in molar units, number only.

What does the record list as pIC50 for Nc1nc2c(c(N3CCCCC3)n1)CCc1ccccc1-2 ? 3.47

What does the record list as pIC50 for Nc1nc2c(c(N3CCCC3)n1)CCc1ccccc1-2 ? 3.51

What does the record list as pIC50 for Nc1nc2c(c(N3CCOCC3)n1)CCc1ccccc1-2 ? 3.47

What does the record list as pIC50 for Nc1nc(Nc2ccccc2)c2c(n1)-c1ccccc1CC2 ? 3.51

Reference for the values: ChEMBL document CHEMBL1938325
